Reported pIC50 values for the following compounds.
- Tested on: U87MG cells
- measurement_protocol: Cellular assay, inhibition of 2-HG production in U87MG cells
- Type: cell-based
- assay_conditions: Homo sapiens, U-87 MG, 48 h
pIC50: −log10 of the molar value.
measurement_type: pIC50

- compound: "O=C(NC1CC(F)(F)C1)[C@H](c1ccccc1Cl)N(C(=O)[C@@H]1COC(=O)N1c1ncccn1)c1cccc(F)c1 [Compound 9]"
  measurement_type: "pIC50"
  value_measured: "> 7.00"
- compound: "N#Cc1ccnc(N2C(=O)[C@@H](O)C[C@H]2C(=O)N(c2cc(F)cc(F)c2)[C@H](C(=O)NC2CC(F)(F)C2)c2ccccc2Cl)c1 [Compound 171]"
  measurement_type: "pIC50"
  value_measured: "> 7.00"
- compound: "CC(=O)N1CC(=O)N(c2cc(C#N)ccn2)[C@H](C(=O)N(c2cccc(F)c2)[C@H](C(=O)NC2CC(F)(F)C2)c2ccccc2Cl)C1 [Compound 92]"
  measurement_type: "pIC50"
  value_measured: "> 7.00"
- compound: "N#Cc1ccnc(N2C(=O)CC[C@H]2C(=O)N(c2cc(F)cc(F)c2)[C@H](C(=O)NC2CC(F)(F)C2)c2cc(Cl)ccc2Cl)c1 [Compound 201]"
  measurement_type: "pIC50"
  value_measured: "> 7.00"
- compound: "N#Cc1ccnc(N2C(=O)CC[C@H]2C(=O)N(c2cc(F)cc(F)c2)[C@H](C(=O)NC2CC(F)(F)C2)c2ccccc2Cl)n1 [Compound 86]"
  measurement_type: "pIC50"
  value_measured: "> 7.00"
- compound: "N#Cc1ccnc(N2C(=O)[C@@H](O)C[C@H]2C(=O)N(c2cccc(F)c2)[C@H](C(=O)NC2CC(F)(F)C2)c2ccccc2Cl)n1 [Compound 119]"
  measurement_type: "pIC50"
  value_measured: "6.30 to 7.00"
- compound: "N#Cc1ccnc(N2C(=O)CC[C@H]2C(=O)N(c2cccc(S(N)(=O)=O)c2)[C@H](C(=O)NC2CC(F)(F)C2)c2ccccc2Cl)c1 [Compound 84]"
  measurement_type: "pIC50"
  value_measured: "6.30 to 7.00"
- compound: "N#Cc1cccc(N(C(=O)[C@@H]2C[C@@H](O)C(=O)N2c2cc(C#N)ccn2)C(C(=O)NC2CC(F)(F)C2)c2ccccc2Cl)c1 (stereo partly drawn) [Compound 170]"
  measurement_type: "pIC50"
  value_measured: "> 7.00"
- compound: "N#Cc1ccnc(N2C(=O)CC[C@H]2C(=O)N(c2cccc(OC(F)F)c2)[C@H](C(=O)NC2CC(F)(F)C2)c2ccccc2Cl)c1 [Compound 181]"
  measurement_type: "pIC50"
  value_measured: "> 7.00"
- compound: "CNS(=O)(=O)c1cccc(N(C(=O)[C@@H]2CCC(=O)N2c2cc(C#N)ccn2)[C@H](C(=O)NC2CC(F)(F)C2)c2ccccc2Cl)c1 [Compound 157]"
  measurement_type: "pIC50"
  value_measured: "> 7.00"
- compound: "O=C(NC1CC(F)(F)C1)[C@H](c1ccccc1Cl)N(C(=O)[C@@H]1CCC(=O)N1c1nccs1)c1cccc(F)c1 [Compound 14]"
  measurement_type: "pIC50"
  value_measured: "6.30 to 7.00"
- compound: "CN(C)S(=O)(=O)c1cccc(N(C(=O)[C@@H]2CCC(=O)N2c2cc(C#N)ccn2)[C@H](C(=O)NC2CC(F)(F)C2)c2ccccc2Cl)c1 [Compound 156]"
  measurement_type: "pIC50"
  value_measured: "> 7.00"
